# Test system: SN12C renal
# ASSAY_SUMMARY: NCI tumour cell line growth inhibition, 48 h
READOUT_KIND: TGI (µM)
Enter your answer as a number in µM; do not include the unit.

{"COMPOUND": "O=C(c1ccc(F)c(F)c1Nc1ccc(I)cc1F)N1CC(O)([C@H]2CCCCN2)C1", "UNIT_SYMBOL": "µM", "NUMERIC_READOUT": 19.7}
{"COMPOUND": "CN(C)c1cc2c(cc1Sc1nc3c(N)nccc3n1CCNCC(C)(C)C)OCO2", "UNIT_SYMBOL": "µM", "NUMERIC_READOUT": 25}
{"COMPOUND": "Oc1c(Cl)cc(C(c2cc(Cl)c(O)c(Cl)c2)C(c2cc(Cl)c(O)c(Cl)c2)c2cc(Cl)c(O)c(Cl)c2)cc1Cl", "UNIT_SYMBOL": "µM", "NUMERIC_READOUT": 8.99}

--- query ---
Form field: reported TGI of CCN(CC)CC(O)CNc1ccc(NCC(O)CCl)c2c1C(=O)c1ccccc1C2=O (centres undefined)
19.7
